We begin with a simple list: items and their reported IC50.
System: NCI-H358 cells
Test: NCI-H358 CTG proliferation assay (120 h) (NSCLC)
Assay type: cell-based
Conditions: Homo sapiens
Procedure: NCI-H358 cells (ATCC No. CRL-5807) were dispensed into white bottom opaque 96 well plates (Perkin Elmer cat no. 5680) at a density of 2000 cells per well in 100 μL RPMI-1640 ATCC-Formulation (Gibco #A10491)+10% FCS. […] For the T0 time point measurement, untreated cells were analyzed at the time of compound addition. Plates were incubated for 120 hours, and cell viability was measured using CellTiter-Glo luminescent cell viability reagent (Promega product code G7570). […]
Numeric answer only, unit nM assumed.

# count of solved cases: 2
INSERT INTO measurements (compound, measured_on, readout_kind, recorded_number) VALUES
  ('C=CC(=O)N1CCN(c2cc(-c3noc([C@@]4(C)CCCc5sc(N)c(C#N)c54)n3)nc(O[C@@H](C)[C@@H]3CCCN3C)n2)C[C@@H]1C [Ia-61]', 'NCI-H358 cells', 'IC50', 0.67),
  ('C=CC(=O)N1[C@H](C)CC(Oc2cc(O[C@@H](C)[C@@H]3CCCN3C)nc(-c3noc([C@@]4(C)CCCc5sc(N)c(C#N)c54)n3)c2)C[C@H]1C (stereo partly drawn) [Ia-86]', 'NCI-H358 cells', 'IC50', 4.67);

Here is the next item to consider.
Item C=CC(=O)N1CCN(c2cc(-c3noc([C@@]4(C)CCCc5sc(N)c(C#N)c54)n3)nc(O[C@@H](C)[C@@H]3CCCN3C)n2)[C@@H](C)C1 [Ia-54] has what recorded IC50? 1.34

----------
Target: protein-protein interaction between SOS1 and KRAS G12C (Homo sapiens, UniProt P01116, C118S/C51S/C80L/G12C)
Construct: His6 (N)
Sequence (P01116 1-169 isoform P01116-2 G12C/C51S/C80L/C118S): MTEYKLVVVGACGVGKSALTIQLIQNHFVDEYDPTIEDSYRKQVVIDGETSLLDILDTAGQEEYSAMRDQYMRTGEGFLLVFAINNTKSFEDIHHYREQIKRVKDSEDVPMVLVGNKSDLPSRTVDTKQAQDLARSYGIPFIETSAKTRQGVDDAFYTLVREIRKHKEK
Assay: KRAS::SOS1 AlphaScreen binding assay
Conditions: Table 36
pIC50: −log10 of the molar value.
Assign class by pIC50: not lower than 8 means met; lower than 8 means not met.

INSERT INTO measurements (molecule, group_label) VALUES
  ('C=CC(=O)N1CCN(c2cc(-c3noc(C4(C)CCCc5sc(N)c(C#N)c54)n3)nc(N3CCN(C)CC3)c2)CC1C (stereo not shown)', 'not met');

Form field: pIC50 at least 8? Entry: `C=CC(=O)N1CCC(Oc2cc(O[C@@H](C)[C@@H]3CCCN3C)nc(-c3noc([C@]4(C)CCCc5sc(N)c(C#N)c54)n3)c2)CC1` not met

Next: C=CC(=O)N1CCN(c2cc(-c3noc(C4(C)CCCc5sc(N)c(C#N)c54)n3)nc(N3CCCN(CCCOC)C[C@@H]3C)c2)CC1 (stereo partly shown) met

Next: `C=CC(=O)N1CCN(c2cc(-c3noc([C@@]4(C)CCCc5sc(N)c(C#N)c54)n3)nc(N3CCCN(C)C[C@@H]3C)n2)CC1` met

Next: C=CC(=O)N1CCN(c2cc(OCCN(C)C)nc(-c3noc(C4(C)CCCc5sc(N)c(C#N)c54)n3)c2)CC1 (stereo not shown) not met

Next: C=CC(=O)N1CCN(c2cc(-c3noc([C@@]4(C)CCCc5sc(N)c(C#N)c54)n3)nc(O[C@@H](C)[C@@H]3CCCN3C)n2)C(C)C1C (stereo partly shown) met

Next: C=CC(=O)N1CCN(c2cc(-c3noc(C4(C)CCCc5sc(N)c(C#N)c54)n3)nc(N3CCN(CC)CC3)c2)CC1 (stereo not shown) not met

----------
Target: protein-protein interaction between SOS1 and KRAS G12C (Homo sapiens, UniProt P01116, C118S/C51S/C80L/G12C)
Construct: His6 (N)
Assay: KRAS::SOS1 AlphaScreen binding assay
Settings: Table 35
READOUT KIND: IC50 (nM)
Numeric answer only, unit nM assumed.

INSERT INTO assay_data (compound, readout_kind, recorded_number) VALUES
  ('C=CC(=O)N1CCC(c2cc(-c3noc(C4(C)CCCc5sc(N)c(C#N)c54)n3)nc(N3CCN(C4CCCC4)CC3)c2)CC1 (centres unmarked) [Ia-2]', 'IC50', 336);

Here is the next item to consider.
Item C=CC(=O)N1CCC(c2cc(-c3noc(C4(C)CCCc5sc(N)c(C#N)c54)n3)nc(N3CCN(C)CC3)c2)CC1 (centres unmarked) [Ia-1] has what recorded IC50? 123

----------
Molecular target: KRASG12-dependent Ba/F3 cells (Homo sapiens, UniProt P01116, G12C, cells depend on it)
Sequence (P01116 whole entry G12C): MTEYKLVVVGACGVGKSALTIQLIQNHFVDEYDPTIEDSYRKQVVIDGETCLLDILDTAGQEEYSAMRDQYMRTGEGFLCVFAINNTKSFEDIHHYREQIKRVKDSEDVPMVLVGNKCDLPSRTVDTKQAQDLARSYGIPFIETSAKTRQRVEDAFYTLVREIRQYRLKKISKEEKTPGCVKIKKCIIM
Test: Ba/F3 cell model proliferation assay (AlamarBlue, 72 h)
Assay type: cell-based
Conditions: Ba/F3 cells transduced with KRASG12C, read-out: IC50 Ba/F3 KRASG12C
We begin with a simple list: items and their reported GI50.
Numeric answer only, unit nM assumed.

# count of solved cases: 2
INSERT INTO assay_data (compound, readout_unit, recorded_number) VALUES
  ('C[C@H](Oc1nc(-c2noc([C@@]3(C)CCCc4sc(N)c(C#N)c43)n2)cc(N2CCN(C(=O)/C=C/CN3CCOCC3)CC2)n1)[C@@H]1CCCN1C [Ia-158]', 'nM', 467),
  ('C=CC(=O)N1CC[C@H](C)N(c2cc(-c3noc([C@@]4(C)CCCc5sc(N)c(C#N)c54)n3)nc(O[C@@H](C)[C@@H]3CCCN3C)n2)CC1 [Ia-55]', 'nM', 24.2);

Here is the next item to consider.
Item C=CC(=O)N1CCC(Oc2cc(-c3noc([C@@]4(C)CCCc5sc(N)c(C#N)c54)n3)nc(N3CCN(C)C[C@@H]3C)c2)CC1 [Ia-79] has what recorded GI50? 7.7

----------
We begin with a simple list: items and their reported IC50.
Target: protein-protein interaction between SOS1 and KRAS G12C (Homo sapiens, UniProt P01116, C118S/C51S/C80L/G12C)
Construct: His6 (N)
Experiment: KRAS::SOS1 AlphaScreen binding assay
Conditions: Table 36
Numeric answer only, unit nM assumed.

# count of solved cases: 3
INSERT INTO measurements (compound, recorded_number) VALUES
  ('C=CC(=O)N1CC(N2CCN(c3cc(-c4noc([C@@]5(C)CCCc6sc(N)c(C#N)c65)n4)nc(N4CCCN(CCCOC)C[C@@H]4C)n3)CC2)C1', 45),
  ('C=CC(=O)N1CC2(CCN(c3cc(-c4noc(C5(C)CCCc6sc(N)c(C#N)c65)n4)nc(N4CCN(C)CC4)c3)C2)C1 (stereo not shown)', 340),
  ('C=CC(=O)N1CCN(c2cc(-c3noc(C4(C)CCCc5sc(N)c(C#N)c54)n3)nc(N3CCN(C4CCCC4)CC3)c2)CC1 (stereo not shown) [Ia-122]', 71);

Here is the next item to consider.
Item `C=CC(=O)N1[C@H](C)CN(c2cc(-c3noc([C@@]4(C)CCCc5sc(N)c(C#N)c54)n3)nc(O[C@@H](C)[C@@H]3CCCN3C)n2)C[C@H]1C` has what recorded IC50? 105

----------
Target: protein-protein interaction between SOS1 and KRAS G12C (Homo sapiens, UniProt P01116, C118S/C51S/C80L/G12C)
Construct: His6 (N)
Assay: KRAS::SOS1 AlphaScreen binding assay
Details: Table 36
READOUT KIND: pIC50
# log scale: pIC50 equals minus log10 of the concentration in mol/L

INSERT INTO measurements (compound, readout_kind, recorded_number) VALUES
  ('C=CC(=O)N1CCN(c2cc(-c3noc([C@@]4(C)CCCc5sc(N)c(C#N)c54)n3)nc(OC3CCC4CCN(C)C43)n2)CC1 (stereo partly shown)', 'pIC50', 8.10),
  ('C=CC(=O)N1CCN(c2cc(-c3noc(C4(C)CCCc5sc(N)c(C#N)c54)n3)nc(N3CCN(CC)C(C)C3)c2)CC1 (stereo not shown)', 'pIC50', 7.37),
  ('C=CC(=O)N1CCCN(c2cc(-c3noc(C4(C)CCCc5sc(N)c(C#N)c54)n3)nc(N3CCN(C)CC3)c2)CC1 (stereo not shown)', 'pIC50', 6.80),
  ('C=CC(=O)N1CCN(c2cc(-c3noc([C@@]4(C)CCCc5sc(N)c(C#N)c54)n3)nc(O[C@@H](C)[C@@H]3CCCN3C)n2)CC12CC2', 'pIC50', 8.82),
  ('C=CC(=O)N1CCN(c2cc(-c3noc(C4(C)CCCc5sc(N)c(C#N)c54)n3)nc(N3CCC(N4CCC(F)C4)CC3)c2)CC1 (stereo not shown)', 'pIC50', 7.66);

Item C=CC(=O)N1CCN(c2cc(-c3noc(C4(C)CCCc5sc(N)c(C#N)c54)n3)nc(N3CCN(C(C)C)CC3)c2)CC1 (stereo not shown) has what recorded pIC50? 7.12

----------
Target: protein-protein interaction between SOS1 and KRAS G12C (Homo sapiens, UniProt P01116, C118S/C51S/C80L/G12C)
Construct: His6 (N)
Assay: KRAS::SOS1 AlphaScreen binding assay
Settings: Table 36
We begin with a simple list: items and their reported pIC50.
# log scale: pIC50 equals minus log10 of the concentration in mol/L

INSERT INTO measurements (compound, recorded_number) VALUES
  ('C=CC(=O)N1CCN(c2cc(-c3noc(C4(C)CCCc5sc(N)c(C#N)c54)n3)cc(N3CCC(N4CCOCC4)CC3)c2)CC1 (stereo not shown)', 6.59),
  ('C=CC(=O)N1CCN(c2cc(-c3noc([C@@]4(C)CC[C@H](C)c5sc(N)c(C#N)c54)n3)nc(N3CCN(C4CCCC4)CC3)c2)CC1', 6.90),
  ('C=CC(=O)N1CCN(c2cc(-c3noc(C4(C)CCC(C)c5sc(N)c(C#N)c54)n3)nc(N3CCN(C4CCCC4)CC3)c2)CC1 (stereo not shown)', 6.60);

Item `C=CC(=O)N1CCN(c2cc(-c3noc([C@@]4(C)CCCc5sc(N)c(C#N)c54)n3)nc(O[C@@H](C)[C@@H]3CCCN3C3CCN(C)CC3)n2)CC1` has what recorded pIC50? 8.70

Next: `C=CC(=O)N1CCN(c2cc(-c3noc([C@@]4(C)CCCc5sc(N)c(C#N)c54)n3)nc(O[C@@H](CC)[C@@H]3CCCN3C)n2)CC1` 8.70
